Test: Thermal stability assessment by nanoDSC
Type: physicochemical
Conditions: 1 mg/mL in PBS, scan 25-100° C. at 1° C./min
experimental.readout: ONSET MELTING (°C)
Numbers only; they are read as °C.

Example entries begin here.
SEQ ID NO: 32: optimized CTGF-binding hNGAL lipocalin mutein (protein, lipocalin mutein) QDSTSDLIPAPPLSKVPLQQNFQDNQFQGKWYVVGWAGNVKLREDKQPFKMSATIYELKEDKSYDVTEVVFEQKKCHYIIKTFVPGSQPGEFTLSPISSSPGLVSHLVRVVSTNYNQHAMVFFKKVHQNREFFWITLYGRTKELTSELKENFIRFSKSLGLPENHIVFPVPIDQCIDG; 62
SEQ ID NO: 14: optimized CTGF-binding hNGAL lipocalin mutein (protein, lipocalin mutein) QDSTSDLIPAPPLSKVPLQQNFQDNQFQGKWYVVGLAGNAILREDKYPAKMFATIYELKEDKSYDVTSVRFEAKSCIYTIKTFVPGSQPGEFTRGNIKSAPGQTSTLVRVVSTNYNQHAMVFFKHVSQNREIFVITLYGRTKELTSELKENFIRFSKSLGLPENHIVFPVPIDQCIDG; 57

Switching to the query record.
GET /values?readout=ONSET MELTING&item= SEQ ID NO: 19: optimized CTGF-binding hNGAL lipocalin mutein (protein, lipocalin mutein) QDSTSDLIPAPPLSKVPLQQNFQDNQFQGKWYVVGLAGNAILREDKQPAKMFATIYELKEDKSYDVTSVRFEAKSCSYTIKTFVPGSQPGEFTAGNIKSAPGQTSTLVRVVSTNYNQHAMVFHKAVSQNRESFVITLYGRTKELTSELKENFIRFSKSLGLPENHIVFPVPIDQCIDG 49
